Data provenance: patent US20120264685A1

test: Stability in simulated gastric fluid; format: in vitro ADME; details: 2 μM, 37° C., pH 1.5, 24 h
Where a SMILES comes first, the peptide text is derived from it. [ ]: non-standard residue; d: D form. ξ: configuration not given here. ξαMeBip(2'-Et,4'-OMe) = CCc1cc(OC)ccc1-c1ccc(CC(C)(N)C(=O)O)cc1; ξBip(2'-Et-4'-OMe) = CCc1cc(OC)ccc1-c1ccc(CC(N)C(=O)O)cc1; ξαMePhe(2,6-F2) = CC(N)(Cc1c(F)cccc1F)C(=O)O; ξαMe(hhPhe) = CC(N)(CCCc1ccccc1)C(=O)O; ξαMePhe(2-F) = CC(N)(Cc1ccccc1F)C(=O)O; ξhhPhe = NC(CCCc1ccccc1)C(=O)O; ξαMeD = CC(N)(CC(=O)O)C(=O)O; ξαMeP = CC1(C(=O)O)CCCN1; ξαMeS = CC(N)(CO)C(=O)O; Aib = CC(C)(N)C(=O)O
experimental-readout: % degradation in 24 h when incubated with simulated gastric fluid (%)
Value expressed in %; do not type the unit.

Use these answered entries as a reference point.
INSERT INTO assay_data (compound, value_reported) VALUES
  ('CCc1cc(OC)ccc1-c1ccc(CC(C)(NC(=O)C(C)(CC(=O)O)NC(=O)[C@H](CO)NC(=O)[C@@H](NC(=O)C(C)(Cc2ccccc2F)NC(=O)[C@@H](NC(=O)CNC(=O)[C@H](CCC(N)=O)NC(=O)C(C)(C)NC(=O)[C@H](Cc2c[nH]cn2)NC(=O)[C@@H](N)C(C)C)[C@@H](C)O)[C@@H](C)O)C(=O)NC(C)(CCCc2ccccc2)C(N)=O)cc1 (some centres unmarked) [compound 191] (H-VH[Aib]QGT[ξαMePhe(2-F)]TS[ξαMeD][ξαMeBip(2''-Et,4''-OMe)][ξαMe(hhPhe)]-NH2)', 12),
  ('CCc1cc(OC)ccc1-c1ccc(CC(C)(NC(=O)C(C)(CC(=O)O)NC(=O)[C@H](CO)NC(=O)[C@@H](NC(=O)[C@H](Cc2ccccc2)NC(=O)[C@@H](NC(=O)CNC(=O)[C@H](CCC(=O)O)NC(=O)C2(C)CCCN2C(=O)[C@H](Cc2c[nH]cn2)NC(=O)[C@@H](N)C(C)C)[C@@H](C)O)[C@@H](C)O)C(=O)NC(C)(CCCc2ccccc2)C(N)=O)cc1 (some centres unmarked) [compound 188] (H-VH[ξαMeP]EGTFTS[ξαMeD][ξαMeBip(2''-Et,4''-OMe)][ξαMe(hhPhe)]-NH2)', 41),
  ('CCc1cc(OC)ccc1-c1ccc(CC(C)(NC(=O)[C@H](CC(=O)O)NC(=O)C(C)(CO)NC(=O)[C@@H](NC(=O)C(C)(Cc2c(F)cccc2F)NC(=O)[C@@H](NC(=O)CNC(=O)[C@H](CCC(=O)O)NC(=O)[C@H](C)NC(=O)[C@H](Cc2c[nH]cn2)NC(=O)[C@@H](N)C(C)C)[C@@H](C)O)[C@@H](C)O)C(=O)NC(C)(CCCc2ccccc2)C(N)=O)cc1 (some centres unmarked) [compound 178] (H-VHAEGT[ξαMePhe(2,6-F2)]T[ξαMeS]D[ξαMeBip(2''-Et,4''-OMe)][ξαMe(hhPhe)]-NH2)', 43),
  ('CCc1cc(OC)ccc1-c1ccc(CC(NC(=O)[C@H](CC(=O)O)NC(=O)[C@H](CO)NC(=O)[C@@H](NC(=O)[C@H](Cc2ccccc2)NC(=O)[C@@H](NC(=O)CNC(=O)[C@H](CCC(N)=O)NC(=O)[C@H](CO)NC(=O)[C@H](Cc2c[nH]cn2)NC(=O)[C@@H](N)C(C)C)[C@@H](C)O)[C@@H](C)O)C(=O)NC(C)(CCCc2ccccc2)C(N)=O)cc1 (some centres unmarked) [compound 81] (H-VHSQGTFTSD[ξBip(2''-Et-4''-OMe)][ξαMe(hhPhe)]-NH2)', 14);

Next compound, please.
Lab note: measured % degradation in 24 h when incubated with simulated gastric fluid of CCc1cc(OC)ccc1-c1ccc(CC(C)(NC(=O)[C@H](CC(=O)O)NC(=O)[C@H](CO)NC(=O)[C@@H](NC(=O)[C@H](Cc2ccccc2)NC(=O)[C@@H](NC(=O)CNC(=O)[C@H](CCC(N)=O)NC(=O)[C@H](CO)NC(=O)[C@H](Cc2c[nH]cn2)NC(=O)[C@@H](NC(=O)[C@@H](N)C(C)C)C(C)C)[C@@H](C)O)[C@@H](C)O)C(=O)NC(CCCc2ccccc2)C(N)=O)cc1 (some centres unmarked) [compound 205] (H-VVHSQGTFTSD[ξαMeBip(2'-Et,4'-OMe)][ξhhPhe]-NH2) was 43
